molecular target: Kappa-type opioid receptor (Cavia porcellus); experiment: Binding affinity against opioid receptor kappa from guinea pig brain, using [3H](-)-bremazocine as radioligand.
property-measured: Ki (nM)
Just the number please, in nM, no unit attached.

// field: Ki; key: CCCCCN1CC[C@@]2(C)c3cc(O)ccc3CC1[C@H]2C (single isomer, unassigned; (+)) ; value = 1990

---

Collected Ki values appear next to each entry.
biological target: Muscarinic acetylcholine receptor; assay: Binding affinity against muscarinic cholinergic receptor from rat brain, using [3H]-QNB as radioligand.

Entry `CN(CCc1cc(Cl)c(Cl)cc1I)CCN1CCCC1` — recorded Ki = 7 µM

Further cases:
Record CCCCCN1CC[C@@]2(C)c3cc(O)ccc3CC1[C@H]2C (single isomer, unassigned; (+)) . Reported Ki: 56.85 µM

Noted for `FCCCN1CCN(CCc2ccc(Cl)c(Cl)c2)CC1` : its Ki reads 682.5 µM

Measured Ki of `FCCCN(CCc1ccc(Cl)c(Cl)c1)CCN1CCCC1` : 32.03 µM

---

Reported pKi values for a set of molecules
target: Kappa-type opioid receptor (Cavia porcellus, UniProt P41144); test: Binding affinity against Opioid receptor kappa 1 from guinea pig brain, using [3H](-)-bremazocine as radioligand.
Sequence (P41144 whole entry): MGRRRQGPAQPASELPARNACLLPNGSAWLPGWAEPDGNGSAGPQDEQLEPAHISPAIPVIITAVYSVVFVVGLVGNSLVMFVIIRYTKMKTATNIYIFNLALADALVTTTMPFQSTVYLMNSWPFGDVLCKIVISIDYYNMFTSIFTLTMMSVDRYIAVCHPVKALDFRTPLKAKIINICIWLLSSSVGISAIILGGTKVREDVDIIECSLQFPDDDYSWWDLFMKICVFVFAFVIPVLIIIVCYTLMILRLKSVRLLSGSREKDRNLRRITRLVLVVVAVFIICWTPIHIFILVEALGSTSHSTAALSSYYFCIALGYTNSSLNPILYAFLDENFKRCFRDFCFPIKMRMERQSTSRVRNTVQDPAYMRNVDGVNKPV
Friendly reminder that pKi comes from taking -log10 of the concentration in mol/L.

Bench note, Kappa-type opioid receptor (Cavia porcellus, UniProt P41144): `CN(CCc1cc(Cl)c(Cl)cc1I)CCN1CCCC1` , pKi reads 4.73

The record that follows has no pKi shown yet.
// pKi (Kappa-type opioid receptor (Cavia porcellus, UniProt P41144)) for `FCCCN(CCc1ccc(Cl)c(Cl)c1)CCN1CCCC1` = 4.98
